System: rat nNOS (Rattus norvegicus)
Construct: made in house; host or cells: E. coli (plasmid pCWnNOS)
Test description: NOS enzyme inhibitory assay (hemoglobin capture), nNOS
Assay type: biochemical
Conditions: Table 1b; ratio of Ki values eNOS/nNOS
Measure: Selectivity n/e
Respond numerically, and do not add a unit to the figure.

Query: Fill in the blank: the reported Selectivity n/e of Cc1cc(N)nc(CC2CNCC2N(C)CCN(C)CCc2cccc(F)c2)c1.Cl.Cl.Cl.Cl (racemic) is ____.
Result: 40.27

Query: Also need Cc1cc(N)nc(C[C@H]2CNC[C@H]2NCCNCc2ccc(C(F)(F)F)cc2)c1.Cl.Cl.Cl.Cl (racemic) , thanks.
Result: 428.4

Query: Now try Cl.Cl.Cl.Cl.Nc1nc(CC2CNCC2NCCNCc2ccc(Cl)cc2)cs1 (racemic) .
Result: 1.8

Query: And Cc1cc(N)nc(C[C@H]2CNC[C@H]2OCCNC(=O)Cc2cccc(F)c2)c1.Cl.Cl (racemic) ?
Result: 17

Query: For Cc1cc(N)nc(C[C@H]2CNC[C@H]2NCCNCc2ccc(Cl)cc2Cl)c1.Cl.Cl.Cl.Cl (racemic) then?
Result: 272

Query: Same thing, different compound: Cc1cc(N)nc(CC2CNCC2NCCNCCc2ccc(F)cc2)c1.Cl.Cl.Cl.Cl (racemic)
Result: 656.2

Query: Repeat for the following compound: Cc1cc(N)nc(C[C@H]2CNC[C@H]2NC[C@H](C)NCc2ccc(Cl)cc2)c1.Cl.Cl.Cl.Cl (racemic)
Result: 294.4

Query: # repeat for Cc1cc(N)nc(C[C@H]2CNC[C@H]2NCCNCc2ccc(F)cc2)c1.Cl.Cl.Cl.Cl (racemic)
Result: 904.5

Query: Record: Cc1cc(N)nc(CC2CNCC2NCCNCc2cccc(C(F)(F)F)c2)c1.Cl.Cl.Cl.Cl (racemic) [Compound P-58]
Result: 146.1

Query: // repeat for Cc1cc(N)nc(C[C@@H]2CNC[C@@H]2NCCOCCc2cccc(F)c2)c1 (racemic) and report
Result: 50

Query: Next compound up: Cc1cc(N)nc(CC2CNCC2NCCNCc2cccc(C(F)(F)F)c2)c1.Cl.Cl.Cl.Cl (racemic) [Compound P-52]
Result: 563.6

Query: And for Cc1cc(N)nc(C[C@H]2CNC[C@@H]2NCCNCc2ccc(F)cc2)c1.Cl.Cl.Cl.Cl (racemic) ?
Result: 90.1

Query: # iterate: Cc1cc(N)nc(C[C@H]2CNC[C@@H]2NCCNCc2ccc(Cl)cc2Cl)c1.Cl.Cl.Cl.Cl (racemic)
Result: 158

Query: What do we get for Cc1cc(N)nc(CC2CNCC2NCCNCc2ccc(Cl)c(Cl)c2)c1.Cl.Cl.Cl.Cl (racemic) [Compound P-65] ?
Result: 153

Query: Param item: Cc1cc(N)nc(C[C@H]2CNC[C@@H]2OCCN)c1.Cl.Cl.Cl (racemic)
Result: 0.3

Query: Input Cc1cc(N)nc(C[C@H]2CNC[C@H]2NC(=O)CNCCc2cccc(F)c2)c1.Cl.Cl.Cl (racemic)
Result: 500

Query: Try the compound Cc1cc(N)nc(C[C@H]2CNC[C@H]2N(C)CCNCCc2cccc(F)c2)c1.Cl.Cl.Cl.Cl (racemic)
Result: 283.5

Query: Query Cc1cc(N)nc(CC2CNCC2NCC(C)NCc2ccc(Cl)cc2)c1.Cl.Cl.Cl.Cl (racemic) next
Result: 28

Query: Same read-out for Cc1cc(N)nc(CC2CNCC2NCCNCc2ccc(Cl)c(Cl)c2)c1.Cl.Cl.Cl.Cl (racemic) [Compound P-60] ?
Result: 260

Query: Cc1cccc(CNCCN[C@H]2CNC[C@@H]2Cc2cc(C)cc(N)n2)c1.Cl.Cl.Cl.Cl (racemic) ?
Result: 305.5

Query: Also check Cc1cc(N)nc(C[C@H]2CNC[C@@H]2NCCNCCc2ccc(F)cc2)c1.Cl.Cl.Cl.Cl (racemic)
Result: 370.5

Query: Again, but for Cc1cccc(CNCCN[C@@H]2CNC[C@@H]2Cc2cc(C)cc(N)n2)c1.Cl.Cl.Cl.Cl (racemic)
Result: 450.5
